STUDY TARGET: canine CD3 on canine T cells (canine PBMC) (canine, UniProt P27597 22-202)
Sequence (P27597 22-202 limits assumed, chain 1 of 3): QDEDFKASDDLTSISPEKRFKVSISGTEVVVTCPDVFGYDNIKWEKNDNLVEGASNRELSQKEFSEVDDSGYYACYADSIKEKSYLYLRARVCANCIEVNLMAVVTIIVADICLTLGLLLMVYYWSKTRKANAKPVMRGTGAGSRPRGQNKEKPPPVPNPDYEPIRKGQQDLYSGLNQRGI
Sequence (chain, as listed by the source limits assumed, chain 2 of 3): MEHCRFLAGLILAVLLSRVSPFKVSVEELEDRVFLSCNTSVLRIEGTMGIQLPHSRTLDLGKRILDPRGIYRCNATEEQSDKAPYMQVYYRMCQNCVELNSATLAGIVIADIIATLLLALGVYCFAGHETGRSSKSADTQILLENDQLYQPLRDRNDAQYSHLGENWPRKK
Sequence (chain, as listed by the source limits assumed, chain 3 of 3): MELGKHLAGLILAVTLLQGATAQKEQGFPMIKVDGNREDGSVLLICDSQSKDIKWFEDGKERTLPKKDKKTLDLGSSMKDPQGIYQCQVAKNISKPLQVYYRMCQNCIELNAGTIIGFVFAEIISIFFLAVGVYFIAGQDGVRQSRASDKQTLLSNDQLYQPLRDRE
TEST DETAILS: cell-based or functional assay
ATTRIBUTE MEASURED: CD25 Activation, Day 6, PB
I'd appreciate a reply containing only the number, no unit.

Answered examples (4):
BINDER	CD25 Activation, Day 6, PB
PMX183 (monospecific anti-canine CD3, canine IgG-B effector function deficient Fc) (antibody, V domains shown) VH: ELTLQESGPGLVKPSQTLSLTCVVSGGSVTNSYYWNWIRQRPGRELEWMGYWTGGTKYNPAFQGRISISADTAKNQFSLQLTSMTTEDTAVYYCARDRDRRVPHAYGYWGQGTLVTVSS VL: SYVLTQLPSKNVTLKQPAHITCGGDNIGSKSVHWYQQKLGQAPVLIIYYDSSRPTGIPERFSGANSGNTATLTISGALAEDEADYYCQVWDSSAKASVFGGGTHLTVL	13.6
PMX192 (monospecific anti-canine CD3, canine IgG-B effector function deficient Fc) (antibody, V domains shown) VH: EVQLVESGGDLVKPAGSLRLSCVASGFTFSDYSMSWVRQAPEKGLQLVAGINGDGSTTYYTDAVKGRFTISRDNAKNTVYLQMNSLRAEDTAMYYCAKGAGTGDFWGQGTLVTVSS VL: SYELTQPPSVNVTLRETAHITCGGASIGRKYVQWIQQIPGQAPVVIIYKDSNRPTGIPERFSGANSGNTATLTISGALAEDEADYYCQVGDSGAWVFGEGTQLTVL	12.7
PMX184 (monospecific anti-canine CD3, canine IgG-B effector function deficient Fc) (antibody, V domains shown) VH: ELTLQESGPGLVKPSQTLSLTCGVSGGSVTRSHYWNWVRQRPGRGLEWMGYWTGSTNYNPAFQGRISITADTAKNQFSLQLRSMTTEDTAVYFCARETTIPTFFFDYWGQGTLVTVSS VL: SYVLTQLPSKNVTLKQPAHITCGGDNIGSKSVHWYQQKLGQAPVLIIYYDSSRPTGIPERFSGANSGNTATLTISGALAEDEADYYCQVWDSGAKAWVFGEGTQLTVL	28.8
PMX158 (monospecific anti-canine CD3, canine IgG-B effector function deficient Fc) (antibody, V domains shown) VH: ELTLQESGPGLVKPSQTLSLTCVVSGGSVTRSYYWNWIRQRPGRGLEWMGYWTGTTNYNPAFQGRISITADTAKNQCSLQLSSMTTEDTAVYYCAREGGKLLGAFGHWGQGTLVTVSS VL: SYVLTQLPSKNVTLKQPAHITCGGDKIGSKSVHWYQQKLGQAPVLIIYYDSSRLTGIPERFSGANSGNTATLTISGALAEDEADYYCQVWDSSAKASVFGGGTHLTVL	9.65

Please turn your attention to the following entry.
Lab book: CD25 Activation, Day 6, PB of PMX198 (monospecific anti-canine CD3, canine IgG-B effector function deficient Fc) (antibody, V domains shown) VH: EFTLQESGPGLVKPSQTLSLTCIVSGGSVTSSYYWNWIRQRPGRGLEWMGYWTGSTNYNPAFQGRISITPDTAKNQFSLQLSSMTTEDTAVYYCAREGGSSLQAFGNWGQGTLVTVSS VL: SYVLTQLPSKNVTLKQPAHITCGGDNIGRKSVHWYQQKLGQAPILIIYYDSSRPTGIPERFSGANSGNTATLTISGALAEDEADYYCQVWDSSAKASVFGGGTHLTVL noted as 26.8
